Consider the following binders; for each one, report its kon.
- tested-system: T1, serum purified human Complement Factor D (human, UniProt P00746 26-253)
- T1 construct: Serum purified protein flowed over the captured antibodies; also called CFD; human CFD
- T1 sequence (P00746 26-253): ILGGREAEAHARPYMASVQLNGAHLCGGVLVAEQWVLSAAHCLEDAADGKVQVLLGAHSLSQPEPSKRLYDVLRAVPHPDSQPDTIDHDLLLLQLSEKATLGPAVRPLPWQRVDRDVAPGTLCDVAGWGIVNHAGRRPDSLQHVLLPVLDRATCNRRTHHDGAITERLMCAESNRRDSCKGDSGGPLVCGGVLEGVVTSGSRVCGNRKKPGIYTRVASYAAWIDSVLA
- test-protocol: SPR Biacore, antibody on protein A chip, single cycle kinetics, 25 C;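 note: antibodies captured to roughly 70 RU on the protein A surface in HBS-EP+ running buffer, with kinetic constants derived by BIAevaluation fitting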
Could you give me the number in M⁻¹ s⁻¹? Just the number is fine.

Inquiry: Provide one value: measured kon of 48V54V59D / 32W60W101V (antibody, V domains shown, KCD119 TAF variant; full antibody captured on protein A) VH: EVQLVESGGGLVQPGGSLRLSCAASGYTFTDYYMNWVRQAPGKGLEWVGDINPVTGDTDYNADFKRRFTFSLDTSKSTAYLQMNSLRAEDTAVYYCTREGPSFAYWGQGTLVTVSS VL: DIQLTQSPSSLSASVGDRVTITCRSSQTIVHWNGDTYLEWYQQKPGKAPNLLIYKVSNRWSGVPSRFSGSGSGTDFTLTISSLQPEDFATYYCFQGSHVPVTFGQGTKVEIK
Reply text: 5.96e+06

Inquiry: Provide one value: measured kon of 31S34I54I59D / 32W60W101V (antibody, V domains shown, KCD119 TAF variant; full antibody captured on protein A) VH: EVQLVESGGGLVQPGGSLRLSCAASGYTFTSYYINWVRQAPGKGLEWIGDINPITGDTDYNADFKRRFTFSLDTSKSTAYLQMNSLRAEDTAVYYCTREGPSFAYWGQGTLVTVSS VL: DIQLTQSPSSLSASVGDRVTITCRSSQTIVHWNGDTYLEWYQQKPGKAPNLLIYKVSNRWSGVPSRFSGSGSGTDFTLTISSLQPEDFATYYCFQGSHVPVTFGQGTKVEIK
Reply text: 3.31e+06
